assay: Pharmacokinetic evaluation in Balb/c mice (IV and oral); type: in vivo; settings: male, mouse, plasma, IV 10 mg/kg and oral 50 mg/kg study, read-out: Peak concentration Cmax
Where a name gives a salt, the structure may show the parent alone.
endpoint_name: Cmax (µM)
Answers are plain numbers, in µM.

>>> print(df.to_string())
                                   compound  units_label  reported_result
0  COc1cc2nc(C)nc(N[C@H](C)c3cccc(C(F)(F)C(C)(C)O)c3F)c2cc1OC(=O)N1CCN(C)C[C@@H]1C [Hydrochloride of compound 28]           µM             4.59

# next compound below
Query (compound): COc1cc2nc(C)nc(N[C@H](C)c3cccc(C(F)(F)C(C)(C)O)c3F)c2cc1OC(=O)N1CCN(C)C[C@H]1C [Hydrochloride of compound 29] ; field requested: Cmax
10.9

----------
test: Pharmacokinetic evaluation in Balb/c mice (IV and oral); assay type: in vivo; settings: male, mouse, plasma, IV 10 mg/kg, PO 50 mg/kg, read-out: Bioavailability F
Where a name gives a salt, the structure may show the parent alone.
Give measured bioavailability for each item. Keep answers brief.
Answers are plain numbers, in %.

                                   compound    endpoint_name  reported_result
0  COc1cc2nc(C)nc(N[C@H](C)c3cccc(C(F)(F)C(C)(C)O)c3F)c2cc1OC(=O)N1CCN(C)C[C@@H]1C [Hydrochloride of compound 28]  bioavailability             98.8

# next compound below
Query (compound): COc1cc2nc(C)nc(N[C@H](C)c3cccc(C(F)(F)C(C)(C)O)c3F)c2cc1OC(=O)N1CCN(C)C[C@H]1C [Hydrochloride of compound 29] ; field requested: bioavailability
91.2

----------
assay: Pharmacokinetic evaluation in Balb/c mice (IV and oral); type: in vivo; conditions: male, mouse, plasma, IV 10 mg/kg, read-out: Volume of distribution at steady state Vdss
Counter-ions that a name gives are not always drawn.
Give measured Vd for each item. Keep answers brief.

>>> print(df.to_string())
                                   molecule  reported_result
0  COc1cc2nc(C)nc(N[C@H](C)c3cccc(C(F)(F)C(C)(C)O)c3F)c2cc1OC(=O)N1CCN(C)C[C@@H]1C [Hydrochloride of compound 28]        11.5 L/kg

# next molecule below
Query (molecule): COc1cc2nc(C)nc(N[C@H](C)c3cccc(C(F)(F)C(C)(C)O)c3F)c2cc1OC(=O)N1CCN(C)C[C@H]1C [Hydrochloride of compound 29] ; field requested: Vd
4.15 L/kg

----------
experiment: Pharmacokinetic evaluation in CD-1 mice (IV and oral); type: in vivo; details: mouse, plasma, IV 1 mg/kg, read-out: Volume of distribution at steady state Vdss
Structures can show the parent of a compound that is named as a salt.
endpoint_name: Vd (L/kg)
One number for each entry, in L/kg.

Query (compound): COc1cc2nc(C)nc(N[C@H](C)c3cccc(C(F)(F)C(C)(C)O)c3F)c2cc1OC(=O)N1CCN(C)CC1C (stereo partly shown) [Hydrochloride of compound 14] ; field requested: Vd
4.95

----------
Give measured IC50 for each item. Keep answers brief.
target: binding of KRAS(G12C) to SOS1 (Homo sapiens (Human), UniProt Q07889); assay: KRAS(G12C) and SOS1 binding assay (HTRF); conditions: 25° C., 60 minutes
Sequence (Q07889 564-1049, stated change not applied): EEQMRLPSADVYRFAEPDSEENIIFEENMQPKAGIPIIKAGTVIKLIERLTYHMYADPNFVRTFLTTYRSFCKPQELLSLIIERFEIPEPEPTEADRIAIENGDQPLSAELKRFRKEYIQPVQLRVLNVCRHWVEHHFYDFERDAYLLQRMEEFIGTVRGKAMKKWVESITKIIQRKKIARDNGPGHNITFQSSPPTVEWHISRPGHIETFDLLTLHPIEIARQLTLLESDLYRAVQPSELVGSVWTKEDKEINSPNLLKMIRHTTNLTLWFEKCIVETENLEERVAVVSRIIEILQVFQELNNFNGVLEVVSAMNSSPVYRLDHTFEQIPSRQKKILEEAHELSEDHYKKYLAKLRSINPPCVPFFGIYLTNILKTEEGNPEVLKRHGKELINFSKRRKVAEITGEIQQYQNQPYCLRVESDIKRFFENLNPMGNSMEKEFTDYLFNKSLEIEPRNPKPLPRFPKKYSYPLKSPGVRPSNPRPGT
Where a name gives a salt, the structure may show the parent alone.
Give bare numbers, in µM.

compound	units_label	IC50
COc1cc2nc(C)nc(N[C@H](C)c3cccc(C(F)(F)C(C)(C)O)c3F)c2cc1OC(=O)N1CCN(C)C[C@@H]1C [Hydrochloride of compound 28]	µM	0.0145
COc1cc2nc(C)nc(N[C@H](C)c3cccc(C(F)F)c3F)c2cc1OC(=O)N1CCN(C)CC1C (stereo partly drawn) [Hydrochloride of compound 19]	µM	0.105
COc1cc2nc(C)nc(N[C@H](C)c3cccc(C(F)(F)C(C)(C)O)c3F)c2cc1OC(=O)N1CCN(C)C[C@H]1C [Hydrochloride of compound 29]	µM	0.0147

// input: 3 compounds below; output: IC50 for each
1. COc1cc2nc(C)nc(N[C@H](C)c3cccc(C(F)F)c3F)c2cc1OC(=O)N1CCNCC12CC2 [Compound 25]
2. COc1cc2nc(C)nc(N[C@H](C)c3cccc(C(F)(F)C(C)(C)O)c3F)c2cc1OC(=O)N1CCN(C)CC1C (stereo partly drawn) [Hydrochloride of compound 14]
3. COc1cc2nc(C)nc(N[C@H](C)c3cccc(C(F)F)c3F)c2cc1OC(=O)N1CCN(C2COC2)CC12CC2 [Compound 26]

0.0861
0.0404
0.0659

----------
assay: Pharmacokinetic evaluation in CD-1 mice (IV and oral); format: in vivo; conditions: mouse, plasma, IV 1 mg/kg and oral 2 mg/kg study, read-out: Peak concentration Cmax
Structures can show the parent of a compound that is named as a salt.
endpoint_name: Cmax (nM)
Answers are plain numbers, in nM.

Query (molecule): COc1cc2nc(C)nc(N[C@H](C)c3cccc(C(F)(F)C(C)(C)O)c3F)c2cc1OC(=O)N1CCN(C)CC1C (stereo partly shown) [Hydrochloride of compound 14] ; field requested: Cmax
92.3

----------
molecular target: binding of KRAS(G12C) to SOS1 (Homo sapiens (Human), UniProt Q07889); assay: KRAS(G12C) and SOS1 binding assay (HTRF); settings: 25° C., 60 minutes
Where a name gives a salt, the structure may show the parent alone.
endpoint_name: pIC50
Answers are plain numbers, as −log10 of the molar value.

// input: 5 molecules below; output: pIC50 for each
1. COc1cc2nc(C)nc(N[C@H](C)c3cccc(C(F)(F)C(C)(C)O)c3F)c2cc1OC(=O)N1CCN(C2COC2)CC12CC2
2. COc1cc2nc(C)nc(N[C@H](C)c3cc(N)cc(C(F)(F)F)c3)c2cc1OC(=O)N1CCN(C)CC1
3. COc1cc2nc(C)nc(N[C@H](C)c3cc(N)cc(C(F)(F)F)c3)c2cc1OC(=O)N1CCNCC1 [Hydrochloride of compound 6]
4. COc1cc2nc(C)nc(N[C@H](C)c3cccc(C(F)(F)CO)c3)c2cc1OC(=O)N1CCN(C)CC1C (some centres unmarked) [Hydrochloride of compound 16]
5. COc1cc2nc(C)nc(N[C@H](C)c3cc(N)cc(C(F)(F)F)c3F)c2cc1OC(=O)N1CCN(C)CC1C (some centres unmarked)

1. 7.32
2. 6.96
3. 7.06
4. 7.22
5. 7.39

// input: 6 molecules below; output: pIC50 for each
1. COc1cc2nc(C)nc(N[C@H](C)c3cc(N)cc(C(F)(F)F)c3)c2cc1OC(=O)N1CCC2(CCOC2)CC1
2. COc1cc2nc(C)nc(N[C@H](C)c3cc(N)cc(C(F)(F)F)c3)c2cc1OC(=O)N1CCC2(CC1)CO[C@H](C)[C@@H]2N
3. COc1cc2nc(C)nc(N[C@H](C)c3cc(N)cc(C(F)(F)F)c3)c2cc1OC(=O)N1CCN(C2COC2)CC1
4. COc1cc2nc(C)nc(N[C@H](C)c3cccc(C(F)(F)CO)c3F)c2cc1OC(=O)N1CCN(C)CC1C (some centres unmarked) [Hydrochloride of compound 18]
5. COc1cc2nc(C)nc(N[C@H](C)c3cccc(C(F)(F)C4CCCO4)c3F)c2cc1OC(=O)N1CCN(C)CC1C (some centres unmarked) [Hydrochloride of compound 15]
6. CCN1CCN(C(=O)Oc2cc3c(N[C@H](C)c4cc(N)cc(C(F)(F)F)c4)nc(C)nc3cc2OC)CC1 [Hydrochloride of compound 5]

1: 7.03; 2: 7.10; 3: 7.08; 4: 7.63; 5: 6.83; 6: 7.11

// input: 3 molecules below; output: pIC50 for each
1. COc1cc2nc(C)nc(N[C@H](C)c3cc(N)cc(C(F)(F)F)c3)c2cc1OC(=O)N1CCCN(C)CC1C (some centres unmarked)
2. COc1cc2nc(C)nc(N[C@H](C)c3cc(N)cc(C(F)(F)F)c3)c2cc1OC(=O)N1CCC(N(C)C)CC1 [Hydrochloride of compound 8]
3. COc1cc2nc(C)nc(N[C@H](C)c3cc(N)cc(C(F)(F)F)c3)c2cc1OC(=O)N1CCN(C)CC1C (some centres unmarked) [Hydrochloride of compound 4]

[7.15, 7.13, 7.15]

----------
test: Pharmacokinetic evaluation in CD-1 mice (IV and oral); assay type: in vivo; conditions: mouse, plasma, PO 2 mg/kg, read-out: Area under drug-time curve AUC0-last PO
Structures can show the parent of a compound that is named as a salt.
endpoint_name: AUC(0-t) (µM·h)
One number for each entry, in µM·h.

Query (compound): COc1cc2nc(C)nc(N[C@H](C)c3cccc(C(F)(F)C(C)(C)O)c3F)c2cc1OC(=O)N1CCN(C)CC1C (stereo partly shown) [Hydrochloride of compound 14] ; field requested: AUC(0-t)
0.606
